Each record here notes measured Hypotensive activity.
# system-under-test: Renin (Homo sapiens) (UniProt P00797)
# Sequence (P00797 whole entry, looked up): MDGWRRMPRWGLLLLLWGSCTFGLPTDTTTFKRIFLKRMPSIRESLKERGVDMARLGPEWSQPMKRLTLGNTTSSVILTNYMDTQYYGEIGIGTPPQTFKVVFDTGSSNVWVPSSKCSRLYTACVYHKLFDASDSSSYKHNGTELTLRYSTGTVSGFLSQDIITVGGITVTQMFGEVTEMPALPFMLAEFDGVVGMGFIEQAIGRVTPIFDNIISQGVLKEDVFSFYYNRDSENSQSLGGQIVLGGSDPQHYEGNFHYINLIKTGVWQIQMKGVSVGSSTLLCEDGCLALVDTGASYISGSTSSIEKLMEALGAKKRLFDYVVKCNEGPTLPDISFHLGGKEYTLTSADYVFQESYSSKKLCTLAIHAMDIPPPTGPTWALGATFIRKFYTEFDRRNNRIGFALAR
# test-method-notes: Maximum hypotensive activity, the magnitude of the human renin dependent blood pressure component was measured (administered intravenously.)
*1 amine or outer side, *2 acyl side, *3 side chain or, on linkers, in order; H or OH if unused. Where a SMILES comes first, the peptide text is derived from it. [ ]: non-standard residue; d: D form. The star is where a group is joined. Leuψ((S)CH(OH)CH2)dVal = CC(C)C[C@H](N[*:1])[C@@H](O)C[C@@H](C(=O)[*:2])C(C)C; X2 = OC[C@H]1O[C@H](O)[C@H](N*)[C@@H](O)[C@H]1O; NMeH = CN[C@@H](Cc1c[nH]cn1)C(=O)O; NHCH2(2-pyridyl) = c1ccc(CN*)nc1; NHC(CH2OH)3 = OCC(CO)(CO)N*; Boc = CC(C)(C)OC(=O)*; CO = O=C([*:1])[*:2]
measurement-type: Hypotensive activity (mmHg)

molecule="CC[C@H](C)[C@H](NC(=O)[C@H](C[C@H](O)[C@H](CC(C)C)NC(=O)[C@H](Cc1c[nH]cn1)N(C)C(=O)[C@H](Cc1ccccc1)NC(=O)[C@@H]1CCCN1C(=O)OC(C)(C)C)C(C)C)C(=O)NCc1ccccn1 (Boc-PF[NMeH][Leuψ((S)CH(OH)CH2)dVal]I-{NHCH2(2-pyridyl)})" system_under_test="Renin (Homo sapiens) (UniProt P00797)" u=mmHg test_value=25
molecule="CC[C@H](C)[C@H](NC(=O)[C@H](C[C@H](O)[C@H](CC(C)C)NC(=O)[C@H](Cc1c[nH]cn1)N(C)C(=O)[C@H](Cc1ccccc1)NC(=O)[C@@H]1CCCN1C(=O)N[C@@H]1[C@@H](O)[C@@H](O)[C@@H](CO)O[C@@H]1O)C(C)C)C(=O)NCc1ccccn1 ({X2-CO}-PF[NMeH][Leuψ((S)CH(OH)CH2)dVal]I-{NHCH2(2-pyridyl)})" system_under_test="Renin (Homo sapiens) (UniProt P00797)" u=mmHg test_value=36
molecule="CC[C@H](C)[C@H](NC(=O)[C@H](C[C@H](O)[C@H](CC(C)C)NC(=O)[C@H](Cc1c[nH]cn1)N(C)C(=O)[C@H](Cc1ccccc1)NC(=O)[C@@H]1CCCN1C(=O)OC(C)(C)C)C(C)C)C(=O)NC(CO)(CO)CO (Boc-PF[NMeH][Leuψ((S)CH(OH)CH2)dVal]I-{NHC(CH2OH)3})" system_under_test="Renin (Homo sapiens) (UniProt P00797)" u=mmHg test_value=30
molecule="CC[C@H](C)[C@H](NC(=O)[C@H](C[C@H](O)[C@H](CC(C)C)NC(=O)[C@H](Cc1c[nH]cn1)N(C)C(=O)[C@H](Cc1ccccc1)NC(=O)[C@@H]1CCCN1C(=O)NC(CO)(CO)CO)C(C)C)C(=O)NCc1ccccn1 ({NHC(CH2OH)3-CO}-PF[NMeH][Leuψ((S)CH(OH)CH2)dVal]I-{NHCH2(2-pyridyl)})" system_under_test="Renin (Homo sapiens) (UniProt P00797)" u=mmHg test_value=40

* * *

Entries and their measured Hypotensive activity follow.
# system-under-test: Renin (Homo sapiens)
# test-method-notes: Maximum hypotensive activity, the magnitude of the human renin dependent blood pressure component was measured. (administered perorally)
*1 amine or outer side, *2 acyl side, *3 side chain or, on linkers, in order; H or OH if unused. Where a SMILES comes first, the peptide text is derived from it. [ ]: non-standard residue; d: D form. The star is where a group is joined. Leuψ((S)CH(OH)CH2)dVal = CC(C)C[C@H](N[*:1])[C@@H](O)C[C@@H](C(=O)[*:2])C(C)C; X2 = OC[C@H]1O[C@H](O)[C@H](N*)[C@@H](O)[C@H]1O; NMeH = CN[C@@H](Cc1c[nH]cn1)C(=O)O; NHCH2(2-pyridyl) = c1ccc(CN*)nc1; NHC(CH2OH)3 = OCC(CO)(CO)N*; Boc = CC(C)(C)OC(=O)*; CO = O=C([*:1])[*:2]
measurement-type: Hypotensive activity (mmHg)

compound="CC[C@H](C)[C@H](NC(=O)[C@H](C[C@H](O)[C@H](CC(C)C)NC(=O)[C@H](Cc1c[nH]cn1)N(C)C(=O)[C@H](Cc1ccccc1)NC(=O)[C@@H]1CCCN1C(=O)NC(CO)(CO)CO)C(C)C)C(=O)NCc1ccccn1 ({NHC(CH2OH)3-CO}-PF[NMeH][Leuψ((S)CH(OH)CH2)dVal]I-{NHCH2(2-pyridyl)})" measurement_type="Hypotensive activity" u=mmHg test_value=38
compound="CC[C@H](C)[C@H](NC(=O)[C@H](C[C@H](O)[C@H](CC(C)C)NC(=O)[C@H](Cc1c[nH]cn1)N(C)C(=O)[C@H](Cc1ccccc1)NC(=O)[C@@H]1CCCN1C(=O)OC(C)(C)C)C(C)C)C(=O)NC(CO)(CO)CO (Boc-PF[NMeH][Leuψ((S)CH(OH)CH2)dVal]I-{NHC(CH2OH)3})" measurement_type="Hypotensive activity" u=mmHg test_value=35
compound="CC[C@H](C)[C@H](NC(=O)[C@H](C[C@H](O)[C@H](CC(C)C)NC(=O)[C@H](Cc1c[nH]cn1)N(C)C(=O)[C@H](Cc1ccccc1)NC(=O)[C@@H]1CCCN1C(=O)OC(C)(C)C)C(C)C)C(=O)NCc1ccccn1 (Boc-PF[NMeH][Leuψ((S)CH(OH)CH2)dVal]I-{NHCH2(2-pyridyl)})" measurement_type="Hypotensive activity" u=mmHg test_value=24
compound="CC[C@H](C)[C@H](NC(=O)[C@H](C[C@H](O)[C@H](CC(C)C)NC(=O)[C@H](Cc1c[nH]cn1)N(C)C(=O)[C@H](Cc1ccccc1)NC(=O)[C@@H]1CCCN1C(=O)N[C@@H]1[C@@H](O)[C@@H](O)[C@@H](CO)O[C@@H]1O)C(C)C)C(=O)NCc1ccccn1 ({X2-CO}-PF[NMeH][Leuψ((S)CH(OH)CH2)dVal]I-{NHCH2(2-pyridyl)})" measurement_type="Hypotensive activity" u=mmHg test_value=37
